Test system: DU-145 prostate
assay_details: NCI-60 one-dose screen, 48 h (100 = growth as untreated, 0 = no growth, -100 = all killed)
assay_context: 10 µM unless noted
Method: Cells are grown in 96 well plates and exposed to the test compound for 48 hours. Compounds are tested at a single concentration, which is 10^-5 M for most compounds. The reported endpoint is percent growth (GI% or GIPRCNT), where numbers from 0 - 100% represent growth inhibition, and numbers from -100% - 0 represent cell death. For example, a value of 40 represents 60% growth inhibition. A value of 0 means no net growth occurred over the course of the experiment. […]
The panel holds about 83,000 compounds, 20% with a hit somewhere; the sample as a whole holds those more often.
attribute_measured: growth (%)
Write it as a number; the unit % goes unstated.

Consider the molecule `CC1(COc2ccc3ncc(C#Cc4cncc(C(=O)Nc5cccc(C(F)(F)F)c5)c4)n3n2)COC1` and give its measured growth. 91.1

Consider the molecule CC(=O)C1=C(C)NC(NNC(N)=S)=NC1c1ccccc1 (stereo not drawn) and give its measured growth. 90.9

Consider the molecule `CC1(C)CC[C@]2(C(=O)O)CC[C@]3(C)C(=CC[C@@H]4[C@@]5(C)CC/C(=N\OCCC#N)C(C)(C)[C@@H]5CC[C@]43C)[C@@H]2C1` and give its measured growth. 91.8

---

Please provide measured growth for the entries that follow.
System: SK-OV-3 ovarian
assay_details: NCI-60 one-dose screen, 48 h (100 = growth as untreated, 0 = no growth, -100 = all killed)
assay_context: 10 µM unless noted
Compounds without any hit were thinned out: in the full panel of roughly 83,000, 20% have a hit.
Write it as a number; the unit % goes unstated.

Consider the compound `COc1cccc2cc(-c3cc4ccccc4[nH]3)/c(=N\NC(=O)c3ccc(Cl)cc3)oc12` and give its measured growth. 39.5

Consider the compound `CC(=O)c1ccc(Nc2nc(SCC(C)C)nc(-c3ccc(F)cc3)c2C#N)cc1` and give its measured growth. 114

Consider the compound `NC(N)=Nc1ccc(Nc2cccc(Nc3ccc(Cl)c(C(F)(F)F)c3)c2)cn1` and give its measured growth. 77.6

Consider the compound `O=[N+]([O-])c1cc(/C=N/Nc2nc(N/N=C/c3ccc(Cl)c([N+](=O)[O-])c3)nc(N3CCCCC3)n2)ccc1Cl` and give its measured growth. 98.8

---

Tested on: OVCAR-8 ovarian
assay_details: NCI-60 one-dose screen, 48 h (100 = growth as untreated, 0 = no growth, -100 = all killed)
assay_context: 10 µM unless noted
About 83,000 compounds went through this panel and 20% of them were active in at least one assay; those are over-represented in the sample as a whole.
Please provide measured growth for the entries that follow.
Write it as a number; the unit % goes unstated.

Lab note: need growth with OVCAR-8 ovarian for entry `CS(=O)(=O)Nc1cc(-c2ccc3ncc(C#N)c(NCc4ccccc4O)c3c2)cnc1Cl` , please look it up. 8.27

Lab note: need growth with OVCAR-8 ovarian for entry `CNC(=O)c1c(NC(=O)c2cccc(C(F)(F)F)c2F)sc2c1CCC(=O)C2` , please look it up. 16.8

Lab note: need growth with OVCAR-8 ovarian for entry `CCCCCc1ccc(S(=O)(=O)Nc2cc(-c3csc(NC(=O)CN4CCN(C)CC4)n3)ccc2OC)cc1` , please look it up. 50.8

---

Tested on: MCF7 breast
assay_details: NCI-60 one-dose screen, 48 h (100 = growth as untreated, 0 = no growth, -100 = all killed)
assay_context: 10 µM unless noted
The panel holds about 83,000 compounds, 20% with a hit somewhere; the sample as a whole holds those more often.
Category scheme (growth): label 0: < 20%; label 1: ≥ 20% and < 70%; label 2: ≥ 70%

Into which bin does this compound go? `CCCCNNC(=O)c1ccc(-c2cccc(F)c2F)cc1` label 0

Into which bin does this compound go? `O=C(Nc1ccc2c(ccn2Cc2ccccn2)c1)c1cnccn1` label 2

Into which bin does this compound go? `COCCNc1ccc2ncc(C#Cc3cncc(C(=O)Nc4ccc(CN5CCN(C)CC5)c(C(F)(F)F)c4)c3)n2n1` label 0

Into which bin does this compound go? `CC1=NC2=NN3C(=NN2C(c2ccccc2)=C1)N=NC(c1ccc(Br)cc1)=C3c1ccc(Br)cc1` label 2

Into which bin does this compound go? `CC1(C)CC[C@]2(C(=O)O)CC[C@]3(C)C(=CC[C@@H]4[C@@]5(C)CC/C(=N\OCCC#N)C(C)(C)[C@@H]5CC[C@]43C)[C@@H]2C1` label 2

Into which bin does this compound go? `COc1ccc(NC(=O)Nc2ccc3c(ccn3C(=O)c3cccc(F)c3)c2)cc1` label 1

Into which bin does this compound go? `CC(=O)c1nnn(-c2c(C(=O)n3nc(C)cc3C)sc(=S)n2-c2ccccc2)c1C` label 2

Into which bin does this compound go? `CCOc1ccccc1NC1=C(Cl)C(=O)c2nc(C)ccc2C1=O` label 0

Into which bin does this compound go? `CC[C@]12C=CCN3CC[C@@]4(c5cc(NC(=O)COc6cc(O)c7c(=O)cc(-c8ccccc8)oc7c6)c(OC)cc5N(C)[C@H]4[C@@](O)(C(=O)OC)[C@@H]1OC(C)=O)[C@@H]32` label 0

Into which bin does this compound go? `Nc1ncc(-c2ccc3ncnc(Nc4cccc(Cl)c4F)c3c2)cn1` label 1

Into which bin does this compound go? `Cc1ccc(-c2nnc(SCc3ccc(O)c4ncccc34)o2)cc1` label 0

Into which bin does this compound go? `O=C(c1ccc(O)c(C(=O)N2Cc3ccc(OCCC[P+](c4ccccc4)(c4ccccc4)c4ccccc4)cc3C2)c1)N1Cc2cccc(F)c2C1` label 1
